# System: MS2 coat protein
# test.summary: apparent KD of MS2 coat protein; designed switch direction (-1 OFF switch, 1 ON switch): -1; higher = weaker reporter binding
# particulars: input ligand: none
recorded.metric: apparent KD of MS2 coat protein (nM)
Answers are plain numbers, in nM.

AUAAAGUGAGGAUAUCCAAUAUAUGACAUGAGGAUCACCCAUGUUUCCACUCGUACCUCCGGAGAAGGCACAAUUU [Ex5 #63] (Eterna round: R97, puzzle: Exclusion 5) | 29.2
UCCCAGCUAGGAUAUACAUGAGGAUCACCCAUGUCGAUCCACGGCACCCGAGUAUUGAGUAGAAGGAGUCAGGA [Eternabot (L2) Solution 69] (Eterna round: R97, puzzle: Exclusion 3) | 23.1
GUUUUCAGACGGAGAUCCUACAUGAGGAUCACCCAUGUCUCACAAGCUUUUUGCUCGUCUUAUUCUCCUCUGUUCUC [Elimod 41 - Jieux - Sensor, turn-off variant 1] (Eterna round: R97, puzzle: Sensor, turn-off variant 1) | 26.1
AGAGAAUACUCAGGAUAUCUGAAUAGAUAGAGAAGAGAAGGGAGACAUGAGGAUCACCCAUGUGAAGUCUUGAGGCUGCAUGGA [Prohibition 24 - Jieux - Exclusion NG 1] (Eterna round: R96, puzzle: Exclusion NG 1) | 209
GAUCCACAUGAGGAUCACCCAUGUUAGGAUAUUCAGCCUUGGUCACGGGAGUCAGGGCGGAGAAGGAACCCUUU [Eternabot (L2) Solution 16] (Eterna round: R97, puzzle: Exclusion 1) | 13

Dear colleague, could you please provide apparent KD of MS2 coat protein for the sequences listed below?
1. AUUAUACAUGUAGGAUAUCUGCACGUUUAGUGCAGAGAAGGACAUGAGGAUCACCCAUGUAGAUCAAUAAUAAUUAAUUUAAUU [ENG1/6-B2] (Eterna round: R96, puzzle: Exclusion NG 1)
2. ACAACCAGAGGAUAUGCGCAUAGAUCAGACUUUGUUUCUGAACAUGAGGAUCACCCAUGUAGAAGGCUGUAACC [Ex2 #79] (Eterna round: R97, puzzle: Exclusion 2)
3. AAUUUACAUGAGGAUCACCCAUGUGAGGAUAUAUGUAAACAAUUUUUAUUCAUCAAACAUAGAAGGCGCGUGAU [JR_Exc1_Sub044] (Eterna round: R97, puzzle: Exclusion 1)
4. UUUUUAGAUGAAGGAUAUACUUAACAUGAGGAUCACCCAUGUGGUGUUGUGAGUGAGUGAGUUUAGUAGAAGGUCAAUUCUUUU [JMF's solution 87] (Eterna round: R96, puzzle: Exclusion NG 2)
5. UUAAUGAUUGUGAGGAUAUUUGAUAGAUAGAUAUUAGAGAAGGUACAUGAGGAUCACCCAUGUGUGAUUAGAGA [Brourd's EX4 #70] (Eterna round: R97, puzzle: Brourd's mod of Exclusion 4)
6. UAUAUGCAAGCGAGAUCCCACAUGAGGAUCACCCAUGUAAUAAAUAAGCACAGAAUUACUGUGAAAGCUCGUCUUAU [Winner reversed engineered 37] (Eterna round: R97, puzzle: Sensor, turn-off variant 1)
7. GUCCGACAUGAGGAUCACCCAUGUGAGGAUAUGCGAUUAGCUGCUAGGUAGUUAGUAUGUAGAAGGCGCAUGAA [EX1 #76] (Eterna round: R97, puzzle: Exclusion 1)
8. UAACUUAUUGUAAGGAUAUCGGUCCGAAAGGACAACGAGAAGGUACAUGAGGAUCACCCAUGUGAAAUAAGAAU [Mod of Zala 21 - Jieux - Brourd's Mod of Exclusion 4] (Eterna round: R97, puzzle: Brourd's mod of Exclusion 4)

Result string:
1. 202
2. 28.7
3. 42.6
4. 346
5. 75.4
6. 105
7. 24.5
8. 29.4
